- Tested on: HCT-116 colon carcinoma
- experimental_protocol: Inhibition of cell proliferation (14C-thymidine incorporation), HCT116
- Format: cell-based, human
- particulars: Homo sapiens, HCT-116
- Protocol: The ability of a test compound to inhibit the proliferation of cell growth was determined by measuring incorporation of ^14C-labelled thymidine into newly synthesized DNA within the cells. […] In this way the effect of a compound on cell growth of cells with many different phenotypes can be determined. […] 200 μl of PBS was added to each well. […] The degree of methyl ^14C-thymidine incorporation was quantified on a Packard Top Count.
measurement_type: IC50 (µM)
Entry rule: numbers only, all in µM.

C[C@@H](N)C(=O)NS(=O)(=O)c1ccc(Nc2nc(N)n(C(=O)c3c(F)cccc3F)n2)cc1 | 38.5

Continue with the compound presented below.
Exercise: Record request: IC50 value, item CCCC(=O)NS(=O)(=O)c1ccc(Nc2nc(N)n(C(=O)c3c(F)cccc3F)n2)cc1
Solution: 11.6

* * *

Catalogue of IC50 values
- Test system: HeLa cervical adenocarcinoma
- experimental_protocol: Inhibition of cell proliferation (14C-thymidine incorporation), HeLa
- Format: cell-based
- particulars: Homo sapiens

Worked examples follow.
Nc1nc(Nc2ccc(S(=O)(=O)NC(=O)CCC(=O)O)cc2)nn1C(=O)c1c(F)cccc1F | 31.9 µM
Nc1nc(Nc2ccc(S(=O)(=O)NC(=O)[C@@H]3CCCN3)cc2)nn1C(=O)c1c(F)cccc1F | 10.2 µM
CN1CCN(CCC(=O)NS(=O)(=O)c2ccc(Nc3nc(N)n(C(=O)c4c(F)cccc4F)n3)cc2)CC1 | > 100 µM
Nc1nc(Nc2ccc(S(=O)(=O)NC(=O)[C@@H](N)CO)cc2)nn1C(=O)c1c(F)cccc1F | 4.02 µM
C[C@H](N)C(=O)N[C@@H](C)C(=O)NS(=O)(=O)c1ccc(Nc2nc(N)n(C(=O)c3c(F)cccc3F)n2)cc1.O=C(O)C(F)(F)F.O=C(O)C(F)(F)F.O=C(O)C(F)(F)F [Compound 15, TFA salt] | 1.04 µM

Exercise: Record request: IC50 value, item C[C@@H](N)C(=O)NS(=O)(=O)c1ccc(Nc2nc(N)n(C(=O)c3c(F)cccc3F)n2)cc1
Solution: 1.96 µM

Exercise: # repeat for Nc1nc(Nc2ccc(S(=O)(=O)NC(=O)COCCOCCOCC(=O)O)cc2)nn1C(=O)c1c(F)cccc1F
Solution: 30.8 µM

* * *

- assay_system: UniProt:P24941
- experimental_protocol: CDK2 Screening Assay (33P-ATP FlashPlate)
- Type: biochemical
- particulars: 10 μM ATP; >10 or >100 = less than 50% inhibition at highest concentration tested
- Protocol: A kinase reaction mixture was prepared containing 50 mM Tris-HCl pH=8, 10 mM MgCl2, 0.1 mM Na3PO4, 1 mM DTT, 10 μM ATP, 0.025 μM biotinylated histone-H1 peptide substrate and 0.2 μCuries per well ^33P-γ-ATP (2000-3000 Ci/mmol). […] The histone-H1 biotinylated peptide substrate became immobilized on the Flashplate™ and the incorporation of ^33P-γ-ATP was measured by reading the plate on a scintillation counter. […]
measurement_type: IC50 (µM)
Entry rule: numbers only, all in µM.

Worked examples follow.
C[C@@H](N)C(=O)NS(=O)(=O)c1ccc(Nc2nc(N)n(C(=O)c3c(F)cccc3F)n2)cc1 [Compound 14] | 0.06
COCCOCCOCC(=O)NS(=O)(=O)c1ccc(Nc2nc(N)n(C(=O)c3c(F)cccc3F)n2)cc1 [Compound 9] | 0.44
Nc1nc(Nc2ccc(S(=O)(=O)NC(=O)CCC(=O)O)cc2)nn1C(=O)c1c(F)cccc1F [Compound 1] | 0.07

Continue with the compound presented below.
Exercise: Record request: IC50 value, item Nc1nc(Nc2ccc(S(=O)(=O)NC(=O)Cn3cnnn3)cc2)nn1C(=O)c1c(F)cccc1F [Compound 4]
Solution: 0.43

* * *

- experimental_protocol: Standard Rat Pharmacokinetics (PK)
- Type: in vivo
- particulars: rat plasma, PO 30 mg/kg of prodrug; read-out: Prodrug Cmax (μM) PO
So basically: Cmax at 0.3 µM or higher? That is label 1. Lower than 0.3 µM? That is label 0.

Completed entries (count: 2):
CCOC(=O)CCC(=O)NS(=O)(=O)c1ccc(Nc2nc(N)n(C(=O)c3c(F)cccc3F)n2)cc1 [Compound 8] | label 0
COCCOCC(=O)NS(=O)(=O)c1ccc(Nc2nc(N)n(C(=O)c3c(F)cccc3F)n2)cc1 [Compound 3] | label 1

Exercise: Exam item: decide whether the reported Cmax for CCCC(=O)NS(=O)(=O)c1ccc(Nc2nc(N)n(C(=O)c3c(F)cccc3F)n2)cc1 [Compound 19] is at least 0.3 µM.
Solution: label 0

Exercise: # repeat for Nc1nc(Nc2ccc(S(=O)(=O)NC(=O)CCC(=O)O)cc2)nn1C(=O)c1c(F)cccc1F [Compound 1]
Solution: label 1

Exercise: # repeat for CCCCC(=O)NS(=O)(=O)c1ccc(Nc2nc(N)n(C(=O)c3c(F)cccc3F)n2)cc1 [Compound 18]
Solution: label 1

* * *

- assay_system: HER2 (Homo sapiens)
- Construct: polyhistidine (N)
- Sequence (P04626 676-1255 limits assumed): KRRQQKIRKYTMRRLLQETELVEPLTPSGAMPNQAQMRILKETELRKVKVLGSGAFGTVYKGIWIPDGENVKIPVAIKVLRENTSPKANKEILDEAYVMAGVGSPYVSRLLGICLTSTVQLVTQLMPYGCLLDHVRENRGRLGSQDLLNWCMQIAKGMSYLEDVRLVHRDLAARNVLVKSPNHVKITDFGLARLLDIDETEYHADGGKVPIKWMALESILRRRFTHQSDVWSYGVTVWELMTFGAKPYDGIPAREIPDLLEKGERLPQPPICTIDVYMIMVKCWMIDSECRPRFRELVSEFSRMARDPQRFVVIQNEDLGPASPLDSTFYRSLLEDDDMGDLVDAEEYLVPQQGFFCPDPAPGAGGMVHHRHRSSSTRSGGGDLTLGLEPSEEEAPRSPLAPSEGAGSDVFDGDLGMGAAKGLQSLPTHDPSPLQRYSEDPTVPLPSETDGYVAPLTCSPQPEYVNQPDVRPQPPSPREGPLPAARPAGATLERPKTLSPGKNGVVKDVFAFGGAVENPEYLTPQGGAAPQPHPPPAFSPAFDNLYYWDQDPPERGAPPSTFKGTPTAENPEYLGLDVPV
- experimental_protocol: HER2 Kinase Screening Assay
- Assay type: biochemical
- particulars: 10 μM ATP; >10 or >100 = less than 50% inhibition at highest concentration tested
measurement_type: IC50

Worked examples follow.
CN1CCN(CCC(=O)NS(=O)(=O)c2ccc(Nc3nc(N)n(C(=O)c4c(F)cccc4F)n3)cc2)CC1 [Compound 5] | ≥ 10 µM
Nc1nc(Nc2ccc(S(=O)(=O)NC(=O)CCC(=O)O)cc2)nn1C(=O)c1c(F)cccc1F [Compound 1] | ≥ 10 µM
Nc1nc(Nc2ccc(S(=O)(=O)NC(=O)COCCOCCOCC(=O)O)cc2)nn1C(=O)c1c(F)cccc1F [Compound 12] | > 100 µM

Continue with the molecule presented below.
Exercise: Record request: IC50 value, item C[C@H](N)C(=O)N[C@@H](C)C(=O)NS(=O)(=O)c1ccc(Nc2nc(N)n(C(=O)c3c(F)cccc3F)n2)cc1.O=C(O)C(F)(F)F.O=C(O)C(F)(F)F.O=C(O)C(F)(F)F [Compound 15, TFA salt]
Solution: ≥ 10 µM

* * *

- Tested on: HeLa cervical adenocarcinoma
- experimental_protocol: Inhibition of cell proliferation (14C-thymidine incorporation), HeLa
- Type: cell-based
- particulars: Homo sapiens
measurement_type: IC50 (µM)
Entry rule: numbers only, all in µM.

NCC(=O)NS(=O)(=O)c1ccc(Nc2nc(N)n(C(=O)c3c(F)cccc3F)n2)cc1 | 14.9

Exercise: Record request: IC50 value, item CCCCC(=O)NS(=O)(=O)c1ccc(Nc2nc(N)n(C(=O)c3c(F)cccc3F)n2)cc1
Solution: 81.2

* * *

- assay_system: CDK1:Cyclin-B (Homo sapiens)
- Construct: purchased New England Biolabs, Beverly, Mass; 6020; host or cells: insect cells
- Sequence (P06493 whole entry): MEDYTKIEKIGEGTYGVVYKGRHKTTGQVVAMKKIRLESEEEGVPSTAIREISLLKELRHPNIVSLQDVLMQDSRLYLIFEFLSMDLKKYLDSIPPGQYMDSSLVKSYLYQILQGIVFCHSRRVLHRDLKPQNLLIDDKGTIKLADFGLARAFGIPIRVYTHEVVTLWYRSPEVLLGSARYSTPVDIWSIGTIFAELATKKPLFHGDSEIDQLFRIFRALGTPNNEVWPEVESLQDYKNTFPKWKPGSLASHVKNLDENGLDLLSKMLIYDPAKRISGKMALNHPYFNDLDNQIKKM
- Sequence (P14635 whole entry partner): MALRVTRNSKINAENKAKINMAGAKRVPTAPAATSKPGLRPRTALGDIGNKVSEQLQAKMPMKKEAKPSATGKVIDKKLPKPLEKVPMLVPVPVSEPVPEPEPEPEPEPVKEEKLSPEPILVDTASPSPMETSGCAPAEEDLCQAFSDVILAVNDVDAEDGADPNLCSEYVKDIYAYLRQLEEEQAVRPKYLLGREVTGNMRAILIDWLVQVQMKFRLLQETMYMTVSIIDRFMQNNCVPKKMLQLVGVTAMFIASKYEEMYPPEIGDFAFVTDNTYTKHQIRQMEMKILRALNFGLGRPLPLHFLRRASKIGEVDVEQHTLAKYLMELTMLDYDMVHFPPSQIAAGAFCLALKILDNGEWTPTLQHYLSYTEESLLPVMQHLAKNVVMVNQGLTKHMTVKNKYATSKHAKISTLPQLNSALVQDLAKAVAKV
- experimental_protocol: CDK1 Screening Assay (33P-ATP FlashPlate)
- Format: biochemical
- particulars: 10 μM ATP; >10 or >100 = less than 50% inhibition at highest concentration tested
Threshold 1 µM. IC50 below it: Met. IC50 at it or above: Not met.

Completed entries (count: 2):
Nc1nc(Nc2ccc(S(=O)(=O)NC(=O)Cn3cnnn3)cc2)nn1C(=O)c1c(F)cccc1F | Not met
CN(C)CC(=O)NS(=O)(=O)c1ccc(Nc2nc(N)n(C(=O)c3c(F)cccc3F)n2)cc1 | Not met

Exercise: Item Nc1nc(Nc2ccc(S(=O)(=O)NC(=O)[C@@H]3CCCN3)cc2)nn1C(=O)c1c(F)cccc1F : IC50 beneath 1 µM, strictly?
Solution: Met

Exercise: # repeat for CCOC(=O)CCC(=O)NS(=O)(=O)c1ccc(Nc2nc(N)n(C(=O)c3c(F)cccc3F)n2)cc1
Solution: Met

Exercise: # repeat for CCCC(=O)NS(=O)(=O)c1ccc(Nc2nc(N)n(C(=O)c3c(F)cccc3F)n2)cc1
Solution: Met

Exercise: # repeat for Nc1nc(Nc2ccc(S(=O)(=O)NC(=O)[C@@H](N)CO)cc2)nn1C(=O)c1c(F)cccc1F
Solution: Not met

Exercise: # repeat for C[C@H](N)C(=O)N[C@@H](C)C(=O)NS(=O)(=O)c1ccc(Nc2nc(N)n(C(=O)c3c(F)cccc3F)n2)cc1.O=C(O)C(F)(F)F.O=C(O)C(F)(F)F.O=C(O)C(F)(F)F [Compound 15, TFA salt]
Solution: Not met

Exercise: # repeat for Nc1nc(Nc2ccc(S(=O)(=O)NC(=O)CCC(=O)O)cc2)nn1C(=O)c1c(F)cccc1F
Solution: Met

Exercise: # repeat for Nc1nc(Nc2ccc(S(=O)(=O)NC(=O)COCCOCCOCC(=O)O)cc2)nn1C(=O)c1c(F)cccc1F
Solution: Met

* * *

Catalogue of Cmax values
- experimental_protocol: Standard Rat Pharmacokinetics (PK)
- Assay type: in vivo
- particulars: rat plasma, IV 2 mg/kg of prodrug; read-out: Prodrug Cmax (μM) IV
Entry rule: numbers only, all in µM.

Worked examples follow.
Nc1nc(Nc2ccc(S(=O)(=O)NC(=O)[C@@H](N)CC(=O)O)cc2)nn1C(=O)c1c(F)cccc1F | 18.3
C[C@@H](N)C(=O)NS(=O)(=O)c1ccc(Nc2nc(N)n(C(=O)c3c(F)cccc3F)n2)cc1 | 11
Nc1nc(Nc2ccc(S(=O)(=O)NC(=O)[C@@H](N)CO)cc2)nn1C(=O)c1c(F)cccc1F | 8.15
COCCOCCOCC(=O)Nc1nc(Nc2ccc(S(N)(=O)=O)cc2)nn1C(=O)c1c(F)cccc1F | 67.3
C[C@H](N)C(=O)N[C@@H](C)C(=O)NS(=O)(=O)c1ccc(Nc2nc(N)n(C(=O)c3c(F)cccc3F)n2)cc1.O=C(O)C(F)(F)F.O=C(O)C(F)(F)F.O=C(O)C(F)(F)F | 31.8

Exercise: Record request: Cmax value, item Nc1nc(Nc2ccc(S(=O)(=O)NC(=O)[C@@H]3CCCN3)cc2)nn1C(=O)c1c(F)cccc1F
Solution: 1.8

Exercise: # repeat for Nc1nc(Nc2ccc(S(=O)(=O)NC(=O)CCCC(=O)O)cc2)nn1C(=O)c1c(F)cccc1F
Solution: 81.8
